Data provenance: PubChem BioAssay AID463173

# Test system: DeltatarO mutant
# procedure_details: S. aureus survival, RN4220 and DeltatarO strains – OD600, teichoic acid synthesis inhibitors, primary screen (AID 463173)
# experimental_parameters: S. aureus RN4220 wild type/DeltatarO growth, OD600, 18 h, hits give low values, screened at 18.75 µg/mL (by protocol)
Among all 52,000 compounds or so, about 4,300 (8.3%) were called active. What follows is part of a selection rich in actives, with near analogues and random picks from the rest.
One threshold, 90%, splits the recorded survival values: lower ones are TRUE, equal or higher ones are FALSE.

- molecule: "CCOC(=O)c1ccc(NC(=O)Cc2noc3ccc(C)cc23)cc1"
  class: "TRUE"
- molecule: "COc1ccc(OC)c(CNC(=O)CCCn2c(=O)c3cccn3c3cccnc32)c1"
  class: "FALSE"

q: Input CC(C)CCSc1nnc2n(-c3ccccc3)c(=O)c3c4c(sc3n12)CC(C)CC4 (configuration not stated) ; condition: survival strictly below 90%. Does it hold?
a: TRUE

q: Input "COc1ccccc1CNc1ccc(-c2nc(-c3cccnc3)no2)cc1[N+](=O)[O-]" ; condition: survival strictly below 90%. Does it hold?
a: TRUE

q: Input "Cc1ccc2c(Sc3ccc(Cl)cc3)c(C(=O)N3CCCCC3)[nH]c2c1" ; condition: survival strictly below 90%. Does it hold?
a: TRUE

q: Input Cc1ccc(CNC(=O)C(=O)NCC(c2ccc3c(c2)OCO3)N2CCOCC2)cc1 (configuration not stated) ; condition: survival strictly below 90%. Does it hold?
a: TRUE

q: Input CCCSc1nc2sc3c(c2c(=O)n1-c1ccccc1)CCC(C)C3 (configuration not stated) ; condition: survival strictly below 90%. Does it hold?
a: TRUE

q: Input "COc1ccc2c(Sc3ccc(Cl)cc3)c(C(=O)N3CCCCC3)[nH]c2c1" ; condition: survival strictly below 90%. Does it hold?
a: TRUE

----------
# System: DeltatarO mutant
# procedure_details: S. aureus survival, RN4220 and DeltatarO strains – OD600, teichoic acid synthesis inhibitors, primary screen (AID 463173)
# experimental_parameters: S. aureus RN4220 wild type/DeltatarO growth, OD600, 18 h, hits give low values, screened at 18.75 µg/mL (by protocol)
Among all 52,000 compounds or so, about 4,300 (8.3%) were called active. Only a selection was taken, and actives are over-represented in it overall.
molecules and their reported survival
// units = %; emit number, no label

q: Look up survival: CCOC(=O)c1ccc(NC(=O)CC2Sc3ccc(C(F)(F)F)cc3NC2=O)cc1 (stereo unspecified)
a: 78

q: Look up survival: "O=C(Cn1c(-c2cccs2)cc2cc(F)ccc21)NCCc1ccc(Cl)cc1"
a: 91

q: Look up survival: "Cc1nc(-c2ccc(S(=O)(=O)NCc3ccc(N(C)C)cc3)cc2)co1"
a: 83

q: Look up survival: CCOC(=O)c1ccc(NC(=O)C(CC)Sc2nc3ccncc3[nH]2)cc1 (stereo unspecified)
a: 128

q: Look up survival: "Cc1ccc(Cl)cc1-n1c(=O)c2sc3ccccc3c2n(CC(=O)NC2CCCC2)c1=O"
a: 13

q: Look up survival: "O=C(Cn1c(=O)n(-c2ccc(Cl)cc2)c(=O)c2sc3ccccc3c21)NC1CCCC1"
a: 90

q: Look up survival: CCSc1nc(=O)c2c(n1C)NC(=O)CC2c1ccc(O)cc1OC (stereo unspecified)
a: 57

q: Look up survival: "COc1ccc(NC(=O)CCn2c(-c3ccc(F)cc3)cc(C(C)=O)c2C)c(OC)c1"
a: 124

q: Look up survival: CCCOC(=O)c1c(NC(=O)C(C)Sc2nc(-c3ccccc3)cc(C(F)(F)F)n2)sc(C(=O)N(C)C)c1C (stereo unspecified)
a: 132
